# measurement-target: Squalene synthase ERG9 (Saccharomyces cerevisiae (strain ATCC 204508 / S288c) (Baker's yeast))
# test-protocol: Competitive inhibition of Baker's yeast squalene synthetase using [1-3H]farnesyl pyrophosphate as substrate by Lineweaver-Burk graphic analysis
Calls of active or inactive are those of the source. No cut-off for these calls is given here.
experimental-endpoint: inhibition

For orientation, consider the following solved cases.
[
  {
    "molecule": "CC/C(=C\\COP(=O)(O)OP(=O)(O)O)CC/C=C(\\C)CCC=C(C)C",
    "observed-measurement": "Active"
  },
  {
    "molecule": "CC(C)=CCC/C(C)=C/CC/C=C(/I)COP(=O)(O)OP(=O)(O)O",
    "observed-measurement": "Active"
  },
  {
    "molecule": "CSC(C/C=C(\\C)CCC=C(C)C)/C(C)=C/COP(=O)(O)OP(=O)(O)O (stereo not drawn)",
    "observed-measurement": "Active"
  },
  {
    "molecule": "C/C(=C\\COP(=O)(O)OP(=O)(O)O)CCCC(C)CCCC(C)CCCC(C)C (mixture of isomers)",
    "observed-measurement": "Active"
  },
  {
    "molecule": "CC(C)=CCC/C(C)=C/CC/C(I)=C\\COP(=O)(O)OP(=O)(O)O",
    "observed-measurement": "Active"
  }
]

Answer for every listed entry: what is its inhibition? The entries follow.
1. CC(C)=CCC/C(C)=C/COP(=O)(O)OP(=O)(O)O
2. C/C(=C\COP(=O)(O)OP(=O)(O)O)CCCC(C)CCCC(C)C (stereo not drawn)
3. CC(C)CCCC(C)CCCC(C)CCOP(=O)(O)OP(=O)(O)O (stereo not drawn)

1. Active
2. Active
3. Active
